tested on: K4 kissing-loop RNA reporter; assay: apparent KD of K4 kissing-loop reporter; higher = weaker reporter binding; settings: Eterna round: R107; input ligand: none
Result Type: apparent KD of K4 kissing-loop reporter (nM)
Numbers only here, please. The scale is nM.

>>> df
                                   residues  measured
0  GUUACGCAUGGAAGGAGCGCAGGCUCAACAAAUAGCUCAGUGAUGUUGAGCAUAUUAAUUCUGCAGGUAGGUCGCCAUGUGUAAC [Ex Arginine B K4 25]       551
1  AUUAAUUUCAGAGGAUAUCGUUAUUUUUUUUAUUUUAUUCAUUUAUGCAGUGAUGUUGCUAUUAUUCGAGAAGGCUGAUUUAUAA [JR_ExcFMNB_Sub005]      62.9

--- query ---
Input line: Requested field: apparent KD of K4 kissing-loop reporter. Item: AGAUGUUUAGCUCAAAGAACGAAAAUGGAAGGAGCGUGCGAAAGCACAGGUAGGUCGCCAGUGAUGUUGGAACCUGAGCAUCAAA [#SwitchBubble 16 #K4Late]
Output line: 262

* * *

system: MS2 coat protein; test: apparent KD of MS2 coat protein; designed switch direction (-1 OFF switch, 1 ON switch): -1; higher = weaker reporter binding; conditions: input ligand: none
Result Type: apparent KD of MS2 coat protein (nM)
Numbers only here, please. The scale is nM.

Below, each entry is followed by its recorded apparent KD of MS2 coat protein result.
Residues	apparent KD of MS2 coat protein, nM
GCGGACAAGAUCGUGAGAUCAGAGACAUGAGGAUCACCCAUGUAGGAUAUCGAUUCGAAACGAAUCGAGAAGGGCAUAGUCCGC [JL denovo 6] (Eterna round: R96, puzzle: Exclusion NG 3)	19.8
AGCAACGUACAGGAUAUACUUCACCUUCUAGAAGUAGAAGGGUGCACAUGAGGAUCACCCAUGUUAGCGAGCAG [Eternabot (Original) Solution 25] (Eterna round: R97, puzzle: Exclusion 6)	15.9
GUAAGUUCAGGAUAUGAUGAAUUAAACAUGAGGAUCACCCAUGUAGAUCCUGAAUUAACAUCAGAAGGGAAUAUUU [JL-ex5-4.53 Brourd mod] (Eterna round: R97, puzzle: Exclusion 5)	15.5
AACUGGACAGGAUAUGUACUUGAGCACUUGAGGAUCACCCAAGUCAUCAAGUACUCAGGCACAGAAGGGUUUAUGA [jl-ex5.4.61 ViennaUCT mod] (Eterna round: R97, puzzle: Exclusion 5)	132

--- query ---
Input line: Requested field: apparent KD of MS2 coat protein. Item: AUAGAUAUAGGAUAUGAGGUAUAGUACAUGAGGAUCACCCAUGUUGAUCGCAUGAACGAUUUAGAAGGAUACCUAA [Eternabot (L2) Solution 83] (Eterna round: R97, puzzle: Exclusion 5)
Output line: 1310

* * *

tested on: MS2 coat protein; assay: apparent KD of MS2 coat protein; designed switch direction (-1 OFF switch, 1 ON switch): -1; higher = weaker reporter binding; conditions: input ligand: FMN 200 uM
# key: entry, value: apparent KD of MS2 coat protein
Give me the value, and tack the unit on after it.

Residues	Result Type	Measured
UUUUUAUAUGAAGGAUAUACUUAACAUGAGGAUCACCCAUGUGGUGUUGUGAGUGAGUGAGUUUAGUAGAAGGUCAAUUAGCUU [JMF's solution 100] (Eterna round: R96, puzzle: Exclusion NG 2)	apparent KD of MS2 coat protein	330 nM
AGCACGACUGCAGGAUAUUCCGCAGUUGAUGCGGGAGAAGGGCAGGGCAGCACUUGAGGAUCACCCAAGUGACCGUGUUGCCAA [Mutated MS2 EX1.7] (Eterna round: R96, puzzle: Exclusion NG 1)	apparent KD of MS2 coat protein	35.8 nM
AACUCUGAGGAGGAUAUACAGUGCGAAAGGACAGUAGAAGGCUUCACAUGAGGAUCACCCAUGUCGAAUAGUGA [EX6 #78] (Eterna round: R97, puzzle: Exclusion 6)	apparent KD of MS2 coat protein	68 nM
UUGGGCAGAGGAUAUCGUACGUAGCACAUGAGGAUCACCCAUGUGGCCAGCCGCUAAACAUGAGAAGGUUGUGUAC [Eternabot (Original) Solution 8] (Eterna round: R97, puzzle: Exclusion 5)	apparent KD of MS2 coat protein	17.6 nM

--- query ---
Input line: Requested field: apparent KD of MS2 coat protein. Item: CUUUCGUGAGGAUAUGAAGCUUCGAUCGUGAGAUCGAGGCUACAGAAGGCACAUGAGGAUCACCCAUGUUCCUC [salish99_ex4_r4_217] (Eterna round: R97, puzzle: Exclusion 4)
Output line: 666 nM

* * *

test system: K4 kissing-loop RNA reporter; assay: apparent KD of K4 kissing-loop reporter; higher = weaker reporter binding; settings: Eterna round: R107; input ligand: FMN 200 uM;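 also: bound reporter read as fluorescence of individual clusters on recovered sequencing chips by microscopy, with normalized cluster intensities fitted with a binding model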
Result Type: apparent KD of K4 kissing-loop reporter (µM)
Numbers only here, please. The scale is µM.

Residues	Target Of Assay	Unit Label	Measured
AGCAGUCACUCGAAAACCAUCGAAGAUGGACGAGGACCGGUACGGCCGCCACUCGGAGUGAUGUUCCGAAGACUGCAAAAUAAAA [#SwitchBubble 16]	K4 kissing-loop RNA reporter	µM	0.38
AAGAGAUAGGGAGGAUAUGCCCUAUUGAGAACCGAGUGAUGUUCGGUAGGACAAAUAGUCCACAGGGUAGAAGGCCCACAUCACA [SS FNM B Tesla 2]	K4 kissing-loop RNA reporter	µM	0.191

--- query ---
Input line: Requested field: apparent KD of K4 kissing-loop reporter. Item: UUGAGCCGGACUUAAGUCCGGCUCUGCGAGCGAGGACCGGUACGGCCGCCACUCGGUGCAGUGAUGUUGCAUGGCCGCAAGGCCG [#2 Exclusion - Tryptophan A Attempt #11 (HarryS)]
Output line: 0.269

* * *

# key: entry, value: apparent KD of MS2 coat protein
tested on: MS2 coat protein; assay: apparent KD of MS2 coat protein, switch OFF state (with FMN for OFF switches, without FMN for ON switches); designed switch direction (-1 OFF switch, 1 ON switch): 1; higher = weaker reporter binding; conditions: FMN input: 0 or 200 uM; Eterna round: R93 (includes R88 designs)
Give me the value, and tack the unit on after it.

Input line: Requested field: apparent KD of MS2 coat protein. Item: AGAAAUAAAAGAGAGGAUAUCCUAAAGAAAACAUGAGGAUCACCCAUGUAAAAGAAAAUAAAAUGGGAGAAGGCUCAAAAUAAAG [80%, More Helter Skelter 2]
Output line: 39.5 nM

Input line: Requested field: apparent KD of MS2 coat protein. Item: AAAAAACAUGAGGAUCACCCAUGUAAAUCUCAUGUAGGAUAUACAAAAAAAAAAAAAAAAGUAGAAGGACAAAAAA [Omei A variation 5]
Output line: 75.2 nM

Input line: Requested field: apparent KD of MS2 coat protein. Item: AAGAAACAUGAGGAUCACCCAUGUAAAUAAAUCUCAGGAUAUCGUACAUGGAAGAUCUAACGAGAAGGGAGAAGAA [Pariah 1 (MS2 Riboswitches - Same State 1)]
Output line: 63.4 nM

Input line: Requested field: apparent KD of MS2 coat protein. Item: AAAUAAAGGACUAAGGAUAUAUCGCAUGACACAUGAGGAUCACCCAUGUGGUAACACAGAGGGUGAUAGAAGGUAGUCCACAAACA [Pariah 6 (MS2 Riboswitches - Same State 2)]
Output line: 287 nM

Input line: Requested field: apparent KD of MS2 coat protein. Item: GGGAGGAAGAGAGAGGAUAUCCAAAGGAAAACAUGAGGAUCACCCAUGUAAAAGGUAGGAAAUUGGGAGAAGGCUCAAAAGAGGC [salish99-ss2-042]
Output line: 46.6 nM

Input line: Requested field: apparent KD of MS2 coat protein. Item: AAGAAACAUGAGGAUCACCCAUGUAGAAAUAUGGGAGGAUAUACAAGGACGAAAGUCAAGGUAGAAGGCCUAAGAA [Mat - Same State 1 - Meechl mod - D132]
Output line: 112 nM

Input line: Requested field: apparent KD of MS2 coat protein. Item: GAAAAAAAAAGGCAGGAUAUCCAAAAAAAAACAUGAGGAUCACCCAUGUAAAAAAAAAAAAAAUGGGAGAAGGGCCAAAAAAAAA [Mat - Same State 2 - Mod - 151]
Output line: 35.2 nM

Input line: Requested field: apparent KD of MS2 coat protein. Item: AUAAAAGAAGCGAAGGAUAUCCAAAGGACCACAUGAGGAUCACCCAUGUAAAGAAAGAAAAAAUGGGAGAAGGUCGCAAAGAAUA [73%, More Fisker Same State 2, D3, 7]
Output line: 97.4 nM

Input line: Requested field: apparent KD of MS2 coat protein. Item: GGGAGACAUGAGGAUCACCCAUGUGAAAACGUGUCAGGAUAUGUAUGGAAACCAUACUGUACAGAAGGGACUUGUC [Quintus Rammius Martialis]
Output line: 89.2 nM

Input line: Requested field: apparent KD of MS2 coat protein. Item: GAAAAACAUGAGGAUCACCCAUGUAGUAAUAUGGAAGGAUAUACAAAGACGUAAGUCAAAGUAGAAGGUCUAAAAG [Garnet 100]
Output line: 24.7 nM
